Target: T1, Rb^P I679F (human, UniProt P06400 380-788, I679F)
T1 construct: also called variant 57
T1 sequence (looked up): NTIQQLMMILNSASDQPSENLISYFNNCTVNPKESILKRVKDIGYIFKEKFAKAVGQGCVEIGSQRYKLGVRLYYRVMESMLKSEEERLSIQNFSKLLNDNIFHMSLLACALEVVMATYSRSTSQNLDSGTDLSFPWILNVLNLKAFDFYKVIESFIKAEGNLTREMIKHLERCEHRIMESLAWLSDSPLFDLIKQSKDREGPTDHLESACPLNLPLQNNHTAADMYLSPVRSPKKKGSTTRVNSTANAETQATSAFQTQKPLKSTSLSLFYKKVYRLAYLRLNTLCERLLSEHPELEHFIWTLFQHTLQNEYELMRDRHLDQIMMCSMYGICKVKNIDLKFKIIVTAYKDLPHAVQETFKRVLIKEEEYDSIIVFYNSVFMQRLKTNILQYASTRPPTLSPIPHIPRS
Experiment: fluorescence polarisation; 37 °C, after the 25 °C reading ramped over 7 min to 37 °C and 2 min incubation; unlabeled Rb^P against 1.5 nM TMR-E2F1^TD or 7.5 nM TMR-E7^LxCxE; 25 mM Tris pH 8.0, 200 mM NaCl, 1 mM DTT, 0.1% Tween-20; apparent Kd
Conditions: both partners purified
No end group written: not given here. TMR = tetramethyl rhodamine dye
Can you tell me Kd for the items I'm about to list?
The reply should be a number in nM, with the unit left off.

// query Tell me Kd reported for {TMR}-GEGIRDLFDCDFGDLTPLD (also called E2F^TD; source: synthetic peptide, bought: GenScript) [TMR-E2F1^TD, peptide of the E2F1 transactivation domain]
// result 33

// query Tell me Kd reported for DLYCYEQLN (also: TMR label, position not given here, source: synthetic peptide, bought: GenScript) [TMR-E7^LxCxE, LxCxE peptide of the E7 oncoprotein from HPV]
// result 20

All figures here come from paper PMC11931385.
